molecular target: HLA-A*0201 (Human); settings: remark: other sources report otherwise
experimental_endpoint: binding affinity ratio (IC50 of standard peptide / IC50 of test peptide)
// no unit string in output, number only

Ask: Tell me the measured binding affinity ratio (IC50 of standard peptide / IC50 of test peptide) of FTFSPTYKA (modifications not checked) [HBV POL 656 …] , please.
Result: 0.0056

Ask: Okay, and VLCLRPVGA (modifications not checked) [HBV X 15 peptide …] ?
Result: 0.0014

Ask: How about this binder: RVTGGVFLV (modifications not checked) [HBV POL 357 9-mer …]
Result: 0.0041

Ask: Please do the same for VLHKRTLGL (modifications not checked) [HBV X 92 peptide …] as well.
Result: 0.0012
